# measurementProtocol: Agonist activity at adrenergic alpha2 receptor in rat vas deferens
# Assay type: functional, tissue-based
observedProperty: pEC50
Scale note: pEC50 = -log10(concentration in M).

// query Form field: reported pEC50 of CC(Oc1ccccc1-c1ccccc1)C1=NCCN1 (stereo unspecified) [BIPHENYLINE]
// result 8.52

---

# testedTarget: UniProt:P08913
# Sequence (P08913 whole entry): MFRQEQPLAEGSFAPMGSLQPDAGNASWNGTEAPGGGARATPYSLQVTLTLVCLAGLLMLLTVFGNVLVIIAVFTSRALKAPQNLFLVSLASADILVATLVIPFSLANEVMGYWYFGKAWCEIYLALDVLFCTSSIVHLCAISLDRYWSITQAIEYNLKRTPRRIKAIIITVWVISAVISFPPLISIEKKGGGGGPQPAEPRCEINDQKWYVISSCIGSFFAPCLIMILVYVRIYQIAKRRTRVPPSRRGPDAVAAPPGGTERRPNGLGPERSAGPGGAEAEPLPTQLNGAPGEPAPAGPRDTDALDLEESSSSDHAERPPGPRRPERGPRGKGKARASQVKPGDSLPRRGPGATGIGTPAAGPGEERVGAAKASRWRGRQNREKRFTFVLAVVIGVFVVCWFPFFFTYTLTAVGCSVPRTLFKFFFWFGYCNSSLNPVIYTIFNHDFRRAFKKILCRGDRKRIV
# measurementProtocol: Agonist activity at human recombinant adrenergic alpha2A receptor expressed in CHO cells assessed as stimulation of extracellular acidification
observedProperty: pEC50
// pEC50 is dimensionless: -log10 of concentration (M)

// query Looking for the measured pEC50 of c1ccc(-c2ccccc2OC(C2=NCCN2)c2ccccc2)cc1 (centres undefined) , can you help?
// result 6.00

// query GET /values?readout=pEC50&item= CC(Oc1ccccc1C1CCCCC1)C1=NCCN1 (centres undefined)
// result 7.10

// query Could you tell me which pEC50 is on file for CC(Oc1ccccc1/C=N/O)C1=NCCN1 (centres undefined) ?
// result 6.30

// query Quick one: pEC50 for CC(Oc1ccccc1C1CCCC1)C1=NCCN1 (centres undefined) ?
// result 7.20

---

# testedTarget: Alpha-2B adrenergic receptor (Homo sapiens)
# Sequence (P18089 whole entry): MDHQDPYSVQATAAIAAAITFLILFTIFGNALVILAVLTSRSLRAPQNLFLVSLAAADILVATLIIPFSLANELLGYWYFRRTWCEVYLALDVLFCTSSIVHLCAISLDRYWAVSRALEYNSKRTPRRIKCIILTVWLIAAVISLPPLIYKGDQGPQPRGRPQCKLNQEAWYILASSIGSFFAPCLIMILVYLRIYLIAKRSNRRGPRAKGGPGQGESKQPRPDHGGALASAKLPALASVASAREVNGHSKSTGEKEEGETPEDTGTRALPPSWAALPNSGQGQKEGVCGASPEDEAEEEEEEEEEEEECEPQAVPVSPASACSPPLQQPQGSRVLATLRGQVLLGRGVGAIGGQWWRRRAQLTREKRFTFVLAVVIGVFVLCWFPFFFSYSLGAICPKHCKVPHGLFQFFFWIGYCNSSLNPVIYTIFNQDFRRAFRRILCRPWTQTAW
# measurementProtocol: Displacement of [3H]RS79948-197 from human recombinant adrenergic alpha2B receptor expressed in CHO cells
observedProperty: Ki (nM)
Value expressed in nM; do not type the unit.

In the examples that follow, each entry is paired with its recorded Ki.
CC(Oc1ccccc1C1CCCC1)C1=NCCN1 (stereo not given); 191
c1ccc(-c2ccccc2OC(C2=NCCN2)c2ccccc2)cc1 (stereo not given); 955

// query Form: Entry = CO/N=C/c1ccccc1OC(C)C1=NCCN1 (stereo not given) | System = Alpha-2B adrenergic receptor (Homo sapiens) | Ki = ____
// result 1200

// query Report Ki for c1ccc(-c2cccc3c2OC(C2=NCCN2)CO3)cc1 (stereo not given) tested on Alpha-2B adrenergic receptor (Homo sapiens).
// result 479

---

Parameter: EC50. Scope: all listed entries.
# testedTarget: Alpha-2B adrenergic receptor (Homo sapiens)
# measurementProtocol: Agonist activity at human recombinant adrenergic alpha2B receptor expressed in CHO cells
Unit µM implied. Number only.

// query What value of EC50 has been recorded for this entry: CC(Oc1ccccc1/C=N/OCc1ccccc1)C1=NCCN1 (configuration not stated)
// result 31.6

// query Please look up its EC50: c1ccc(-c2cccc3c2OCC(C2=NCCN2)O3)cc1 (configuration not stated)
// result 12.6

// query Returns the measured EC50 for the input molecule. Input: CC(Oc1ccccc1C1CCCCC1)C1=NCCN1 (configuration not stated)
// result 0.2

// query I am curious: what EC50 value has been reported for CC(Oc1ccccc1C1CCCC1)C1=NCCN1 (configuration not stated) ?
// result 0.501

// query May I ask what EC50 has been recorded for CC(Oc1ccccc1/C=N/O)C1=NCCN1 (configuration not stated) ?
// result 3.98

// query Returns the measured EC50 for the input molecule. Input: c1ccc(-c2cccc3c2OC(C2=NCCN2)CO3)cc1 (configuration not stated)
// result 22.4

// query Would you mind telling me what EC50 value was observed for COC1(C2=NCCN2)COc2c(cccc2-c2ccccc2)O1 (configuration not stated) ?
// result 15.8
